Origin of values: patent US20260193366A1

- tested-target: T1, hIL-4Rα on cells (human, UniProt P24394 26-825)
- T1 sequence: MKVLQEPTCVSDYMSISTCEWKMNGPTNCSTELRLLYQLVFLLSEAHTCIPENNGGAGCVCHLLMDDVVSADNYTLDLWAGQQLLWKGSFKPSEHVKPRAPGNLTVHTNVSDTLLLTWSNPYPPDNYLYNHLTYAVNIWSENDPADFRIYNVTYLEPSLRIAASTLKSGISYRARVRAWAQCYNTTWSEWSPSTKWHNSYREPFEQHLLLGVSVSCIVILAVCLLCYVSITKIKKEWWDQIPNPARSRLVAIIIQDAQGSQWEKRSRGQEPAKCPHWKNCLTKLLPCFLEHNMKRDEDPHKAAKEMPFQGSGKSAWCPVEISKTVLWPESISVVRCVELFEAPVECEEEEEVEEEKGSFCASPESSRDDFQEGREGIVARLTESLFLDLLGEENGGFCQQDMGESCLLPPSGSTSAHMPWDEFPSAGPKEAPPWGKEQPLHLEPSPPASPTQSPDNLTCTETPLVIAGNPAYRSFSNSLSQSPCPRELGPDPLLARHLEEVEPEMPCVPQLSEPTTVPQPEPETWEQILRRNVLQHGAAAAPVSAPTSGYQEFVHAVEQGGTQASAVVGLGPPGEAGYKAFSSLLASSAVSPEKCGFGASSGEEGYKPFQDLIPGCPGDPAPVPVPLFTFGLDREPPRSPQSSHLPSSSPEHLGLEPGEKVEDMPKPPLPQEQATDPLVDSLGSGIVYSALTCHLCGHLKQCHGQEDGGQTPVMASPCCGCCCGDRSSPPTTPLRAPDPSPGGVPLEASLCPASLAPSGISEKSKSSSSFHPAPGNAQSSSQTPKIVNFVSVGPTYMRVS
- method-notes: cell-based or functional assay
quantity-kind: Inhibition of IL-13 induced TF-1 Proliferation IC50 (nM)
Response body: numeric value in nM, unit text excluded.

Query: Quick one: give measured Inhibition of IL-13 induced TF-1 Proliferation IC50 for Construct 15 (mAb423) with IgG1 YTE LALA heavy chain constant region (antibody, V domains shown) VH: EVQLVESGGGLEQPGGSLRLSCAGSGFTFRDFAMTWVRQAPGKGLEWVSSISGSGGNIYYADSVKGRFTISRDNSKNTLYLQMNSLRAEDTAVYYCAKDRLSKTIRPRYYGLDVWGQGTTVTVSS VL: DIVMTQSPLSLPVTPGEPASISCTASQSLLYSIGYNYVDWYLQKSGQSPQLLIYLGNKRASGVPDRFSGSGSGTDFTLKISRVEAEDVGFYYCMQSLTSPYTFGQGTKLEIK
Response: 0.117

Query: Give the reported Inhibition of IL-13 induced TF-1 Proliferation IC50 for this binder. Construct 13 (mAb422) with IgG1 YTE LALA heavy chain constant region (antibody, V domains shown) VH: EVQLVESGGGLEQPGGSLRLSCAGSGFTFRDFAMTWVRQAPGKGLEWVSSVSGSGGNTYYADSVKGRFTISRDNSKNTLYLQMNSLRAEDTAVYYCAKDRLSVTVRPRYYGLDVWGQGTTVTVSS VL: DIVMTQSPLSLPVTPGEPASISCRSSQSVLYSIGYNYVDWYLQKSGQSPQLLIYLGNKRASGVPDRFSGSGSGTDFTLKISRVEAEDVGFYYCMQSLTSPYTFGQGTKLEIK
Response: 0.119

---
Query: Complete the entry with Inhibition of IL-13 induced TF-1 Proliferation IC50 for Construct 38 (mAb471) with IgG1 YTE LALA heavy chain constant region (antibody, V domains shown) VH: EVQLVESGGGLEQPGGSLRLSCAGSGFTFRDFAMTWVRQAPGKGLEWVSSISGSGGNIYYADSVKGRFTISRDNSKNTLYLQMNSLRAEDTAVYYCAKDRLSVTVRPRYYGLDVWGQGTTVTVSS VL: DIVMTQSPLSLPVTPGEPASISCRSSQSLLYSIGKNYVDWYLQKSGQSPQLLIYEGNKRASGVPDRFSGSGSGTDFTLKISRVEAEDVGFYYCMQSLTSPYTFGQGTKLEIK
Response: 0.161
